molecular target: Potassium voltage-gated channel subfamily KQT member 1 (Homo sapiens) (UniProt P51787); test: KCNQ1 potassium channel potentiators, confirmation, FluxOR thallium flux, CHO cells, duplicates (AID 493007); conditions: KCNQ1 cell line, FluxOR thallium flux fluorescence, at 10 µM, % of reference activator effect, buffer zero;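 as to Outcome: cells depolarized by a potassium plus thallium sulfate stimulus after compound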
Sequence (P51787 whole entry, looked up): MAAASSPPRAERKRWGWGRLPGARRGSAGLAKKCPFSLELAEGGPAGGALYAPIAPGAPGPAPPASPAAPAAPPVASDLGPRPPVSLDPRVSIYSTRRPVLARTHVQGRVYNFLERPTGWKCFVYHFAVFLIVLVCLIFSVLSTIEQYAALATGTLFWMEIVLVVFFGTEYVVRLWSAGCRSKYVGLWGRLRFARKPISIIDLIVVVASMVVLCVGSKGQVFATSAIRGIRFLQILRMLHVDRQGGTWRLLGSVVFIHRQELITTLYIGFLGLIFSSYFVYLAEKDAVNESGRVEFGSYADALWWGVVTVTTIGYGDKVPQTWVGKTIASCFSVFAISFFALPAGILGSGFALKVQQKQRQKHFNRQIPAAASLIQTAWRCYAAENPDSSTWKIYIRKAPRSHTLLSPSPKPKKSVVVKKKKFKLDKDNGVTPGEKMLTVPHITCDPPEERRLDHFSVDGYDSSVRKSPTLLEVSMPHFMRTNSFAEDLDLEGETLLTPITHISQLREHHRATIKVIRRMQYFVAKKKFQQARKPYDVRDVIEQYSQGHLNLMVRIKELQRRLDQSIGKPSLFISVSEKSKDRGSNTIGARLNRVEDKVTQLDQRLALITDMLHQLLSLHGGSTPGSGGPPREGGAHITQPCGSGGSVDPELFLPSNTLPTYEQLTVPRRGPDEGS
Calls of active or inactive are those of the source.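 The calls were made as follows: active = potentiation averaged over duplicate wells exceeding buffer-only control mean by more than 3 SD; inactive = the rest.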
Outcome field: choose from 1 for active, 0 for inactive

// below: answered molecules
>  <MOLECULE>
CC1Cc2cc(/C=C3/SC(=S)NC3=O)ccc2O1 (stereo not drawn)

>  <CLASS_NAME>
0

$$$$
>  <MOLECULE>
O=C(CN1C(=O)COc2ccccc21)N(Cc1cccnc1)Cc1cccc(F)c1

>  <CLASS_NAME>
0

$$$$
>  <MOLECULE>
O=c1sc(N2CCN(c3ccccc3F)CC2)nc2ccsc12

>  <CLASS_NAME>
0

$$$$
>  <MOLECULE>
S=C(Nc1ccc(Br)cc1)N1CCn2cccc2C1c1cccnc1 (stereo not drawn)

>  <CLASS_NAME>
0

$$$$
>  <MOLECULE>
S=c1[nH]c(-c2cccs2)cn1-c1ccccc1

>  <CLASS_NAME>
1

$$$$
>  <MOLECULE>
Oc1cccc2ccc(Nc3ccccn3)nc12

>  <CLASS_NAME>
0

$$$$
>  <MOLECULE>
CS(=O)(=O)N1CCc2cc(-c3csc(NC(=O)C(c4ccccc4)c4ccccc4)n3)ccc21

>  <CLASS_NAME>
0

$$$$
>  <MOLECULE>
C/C(=N\NC(=O)C1COc2ccccc2O1)c1ccc(N2CCOCC2)cc1 (stereo not drawn)

>  <CLASS_NAME>
0

$$$$
>  <MOLECULE>
CCOC(=O)COc1cc(-n2c(=S)[nH]c3cc(OC)c(OC)cc3c2=O)c(Cl)cc1Cl

>  <CLASS_NAME>
1

$$$$
>  <MOLECULE>
COc1ccc(-n2cc(-c3ccccc3)c3c(=S)nc[nH]c32)cc1

>  <CLASS_NAME>
1

$$$$

Assay result, entry "Cc1ccc(Nc2ccc([N+](=O)[O-])cn2)cc1Cl" — outcome?
0

Input "CCCCN(CCCC)C(=S)NC(=O)c1ccccc1Cl"
1

Input "CCN(C(=S)NC(=O)c1ccccc1Br)C1CCCCC1"
1

Can you handle "CN1C(=O)/C(=N\OC(=O)c2cccc3ccccc23)c2ccccc21" next?
0

Subsequent entry: "S=c1[nH]cnc2scc(-c3ccccc3)c12"
1

---

target: Potassium voltage-gated channel subfamily KQT member 1 (Homo sapiens); test: KCNQ1 potassium channel potentiators, confirmation, FluxOR thallium flux, CHO cells, duplicates (AID 493007); conditions: KCNQ1 cell line, FluxOR thallium flux fluorescence, at 10 µM, % of reference activator effect, buffer zero
Active and inactive are the calls of the source.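 The calls were made as follows: active = potentiation averaged over duplicate wells exceeding buffer-only control mean by more than 3 SD; inactive = the rest.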
Permitted responses: Y (active), N (inactive)

# count of solved cases: 5
>  <MOLECULE>
O=C(NC(=S)N(CCCCO)C1CCCCC1)c1sc2ccccc2c1Cl

>  <CLASS_NAME>
Y

$$$$
>  <MOLECULE>
COC(=O)C1=NN(C(=O)c2cccc(Br)c2)C(O)(c2ccc(Cl)cc2)C1 (centres undefined)

>  <CLASS_NAME>
Y

$$$$
>  <MOLECULE>
O=C1CN(c2nc(-c3cccs3)nc3sc4c(c23)CCCC4)CCN1

>  <CLASS_NAME>
Y

$$$$
>  <MOLECULE>
CCC/C=N/NC(=O)c1[nH]c2c([N+](=O)[O-])cccc2c1C

>  <CLASS_NAME>
N

$$$$
>  <MOLECULE>
C=CCNC(=S)Nc1sc2c(c1C(=O)OCC)CC(C(C)C)OC2 (centres undefined)

>  <CLASS_NAME>
Y

$$$$

Please share the test call associated with "Cc1ccc(NC(=O)CN(C)C(=O)CCOc2ccccc2C)cc1" .
N

// query: "Oc1c(N=NC(=S)Nc2ccccc2F)c2ccccc2n1Cc1ccc(F)cc1"
Y

What would you report for "O=C(NC(=S)Nc1ccccc1N1CCCCC1)c1cccs1" ?
Y

Follow-up item: "Cc1ccc(-c2nnc(SCC(=O)N/N=C/c3ccccc3C(=O)O)n2-c2ccc(Cl)cc2)cc1"
N

Try "Cn1c(=S)[nH]c2scc(-c3cccs3)c2c1=O" next.
Y

Repeat for the following molecule: "O=C(N1CCOCC1)N1CCC(n2nnc3ccccc32)CC1"
N

Cool, now "CCCOc1ccc(Cc2nc(N)nc(N)n2)cc1"
N

Thanks! And "CCCOc1ccc(C(=O)NC(=S)NNC(=O)c2c(-c3ccccc3)noc2C)cc1" ?
Y

Subsequent entry: "O=C(c1ccccc1[N+](=O)[O-])N1CCN(c2ccc(N3CCOCC3)nn2)CC1"
N

Record: "C=CCn1sc(=N)c(C#N)c1N"
Y

Try this molecule next: "CN(Cc1cccnc1)C(=O)Cc1ccc(NS(=O)(=O)c2cccc(C(F)(F)F)c2)cc1"
N

"CCC(CC)C(=O)Nc1cc([N+](=O)[O-])ccc1Cl" , same question.
N

Another molecule to check: CCS(=O)(=O)N1Cc2ccccc2CC1C(=O)Nc1cccc(S(=O)(=O)N(C)C)c1 (centres undefined)
N

Input "Cc1ccc(-c2cc(C(=O)NCc3ccccn3)c3ccccc3n2)cc1C"
N

---

assay: thallium flux activation in parental CHO cells, counter-screen for KCNQ1 potentiator project (AID 493006); conditions: parental CHO-K1 cells, FluxOR thallium flux, at 10 µM; hits give high values
Activity calls are given as the source filed them.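 Rule for the calls: active = duplicate-averaged activation above buffer control mean plus 5 SD of those controls; inactive = the rest.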
ENDPOINT: activation

Previously resolved entries follow.
>  <COMPOUND>
O=C(CN1C(=O)COc2ccccc21)N(Cc1cccnc1)Cc1cccc(F)c1

>  <ENDPOINT>
activation

>  <RECORDED_MEASUREMENT>
inactive

$$$$
>  <COMPOUND>
S=C(Nc1ccc(Br)cc1)N1CCn2cccc2C1c1cccnc1 (stereo not drawn)

>  <ENDPOINT>
activation

>  <RECORDED_MEASUREMENT>
inactive

$$$$
>  <COMPOUND>
Cc1c(CN2CCN(C)C(CCO)C2)[nH]c2c(Cl)cccc12 (stereo not drawn)

>  <ENDPOINT>
activation

>  <RECORDED_MEASUREMENT>
inactive

$$$$
>  <COMPOUND>
CC(=O)c1ccc(OCc2cc(C(=O)N(C)Cc3nc4c(C)cccc4[nH]3)no2)cc1

>  <ENDPOINT>
activation

>  <RECORDED_MEASUREMENT>
inactive

$$$$
>  <COMPOUND>
Cc1ccccc1CC(=O)NC1CCN(Cc2ccccc2)CC1

>  <ENDPOINT>
activation

>  <RECORDED_MEASUREMENT>
inactive

$$$$
>  <COMPOUND>
CCc1ccc(C2c3[nH]c4ccccc4c3CCN2C(=O)CNC(N)=O)cc1 (stereo not drawn)

>  <ENDPOINT>
activation

>  <RECORDED_MEASUREMENT>
inactive

$$$$

Bench note: what activation did CCC(NC(=O)CCc1nnc(-c2cc(C)on2)o1)C12CC3CC(CC(C3)C1)C2 (stereo not drawn) show?
inactive

// query: "CCOC(=O)c1c(CN2CCN(CCO)CC2)n(C)c2cc(Br)c(OC)cc12"
inactive

---

target: Potassium voltage-gated channel subfamily KQT member 2 (Rattus norvegicus); test: rat KCNQ2 channel potentiation, selectivity assay for KCNQ1 potentiator project, KCNQ2-CHO-K1 cells (AID 493009); settings: FluxOR thallium flux fluorescence, at 10 µM, scaled: buffer 0, activator control 100;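 also: assay conditions were tuned for KCNQ1 rather than KCNQ2 modulators; signal is max minus min fluorescence divided by baseline after thallium stimulus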
Active and inactive are the calls of the source.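 The calls were made as follows: active = mean duplicate potentiation above the buffer control mean plus 5 SD of buffer wells; inactive = the rest.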
Would you mind answering with one of these outcomes? Y (active), N (inactive)

Here are 2 compounds together with their reported answers.
>  <COMPOUND>
CSC(=S)N/N=C/c1ccc(N(C)C)cc1

>  <CLASS_NAME>
N

$$$$
>  <COMPOUND>
O=C(Nc1nnc(-c2ccc3c(c2)CCCC3)o1)c1ccccc1

>  <CLASS_NAME>
Y

$$$$

In this assay, the call recorded for "CCOC(=O)Cc1cc(=O)n2[nH]c(C)c(-c3ccc(Cl)cc3)c2n1" was what?
N

# repeat for CCOC(=O)c1ccc(-c2ccc(C3Nc4ccccc4C(=O)N3O)o2)cc1 (centres undefined)
N

Also need "CCCCNC(=O)CCc1c(C)nc2c(c(C)nn2-c2ccccc2)c1C" , thanks.
N

Then this compound: "CCN1C(=O)/C(=C/c2ccc(OCc3ccc(C(=O)O)cc3)c(Cl)c2)NC1=S"
Y

How about CCOC(=O)C1=NN(C(=O)c2ccccc2)C(O)(c2ccc(C)cc2)C1 (centres undefined) ?
Y

Consider next the compound "Cc1ccccc1OCc1nnc(SCCN2CCCC2)n1-c1ccccc1" in the same way.
N

Now consider "Cc1ccc(S(=O)(=O)Nc2cc(C(F)(F)F)ccc2N2CCOCC2)c(C)c1" and answer again.
N

Queued: "Cc1ccc(OCCn2c(=S)[nH]c3ccccc32)c(C(C)C)c1"
N

Similarly, "COC(=O)CCCC[C@@H]1SC[C@@H](NC(=O)OC)[C@@H]1NC(=O)OC" ?
N

Consider next the compound "Nc1nc(N)c(N=Nc2ccc(C(=O)O)cc2)c(N)n1" in the same way.
N

Same question for "CN1CCN(c2ccccc2NC(=S)NC(=O)c2cc3ccccc3o2)CC1" please.
N

Record: "Oc1c(/C=N/c2ccccn2)sc2ccccc12"
N

Next: "Oc1c(N=NC(=S)Nc2ccccc2F)c2ccccc2n1Cc1ccccc1F"
Y

Request: O=C(CC1(O)C(=O)N(Cc2ccccc2)c2ccccc21)c1ccncc1 (centres undefined)
Y

And for "COCCN(CCOC)Cc1cc(=O)oc2cc3c(cc12)CCC3" ?
N

Param item: "Cc1occc1C(=O)NNC(=S)NC(=O)COc1ccc(Cl)cc1Cl"
Y

Cc1cc(=O)oc2cc(OCC3CC(c4ccccc4Cl)=NO3)ccc12 (centres undefined) ?
N

Source: PubChem BioAssay
